Target: hTRPV3 (Homo sapiens)
Construct: The commercially available plasmid with the full-length cDNA of hTRPV3 (791 aa) (NM_001258205.2)
Sequence (Q8NET8 1-791 isoform Q8NET8-2): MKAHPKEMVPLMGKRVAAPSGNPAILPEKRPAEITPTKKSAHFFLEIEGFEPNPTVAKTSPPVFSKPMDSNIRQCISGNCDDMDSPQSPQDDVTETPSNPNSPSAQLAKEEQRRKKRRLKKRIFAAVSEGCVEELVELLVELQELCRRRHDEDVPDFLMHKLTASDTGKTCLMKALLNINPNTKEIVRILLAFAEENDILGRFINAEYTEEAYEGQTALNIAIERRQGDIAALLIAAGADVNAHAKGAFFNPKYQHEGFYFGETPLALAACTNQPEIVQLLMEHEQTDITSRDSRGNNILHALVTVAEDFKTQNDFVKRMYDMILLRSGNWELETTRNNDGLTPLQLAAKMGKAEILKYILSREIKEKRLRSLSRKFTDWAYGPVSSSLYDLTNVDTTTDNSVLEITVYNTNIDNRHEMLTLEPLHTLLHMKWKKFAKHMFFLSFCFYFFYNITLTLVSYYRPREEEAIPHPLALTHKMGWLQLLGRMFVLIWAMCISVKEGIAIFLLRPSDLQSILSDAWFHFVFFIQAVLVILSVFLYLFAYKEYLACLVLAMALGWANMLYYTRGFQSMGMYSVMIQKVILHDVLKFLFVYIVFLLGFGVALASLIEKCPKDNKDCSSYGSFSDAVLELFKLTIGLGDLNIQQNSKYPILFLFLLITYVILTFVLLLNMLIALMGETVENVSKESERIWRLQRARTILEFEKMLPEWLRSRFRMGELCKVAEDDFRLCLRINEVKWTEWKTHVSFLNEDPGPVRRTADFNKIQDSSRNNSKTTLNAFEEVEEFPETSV
Assay: Whole-cell patch-clamp recording of hTRPV3 current in transfected HEK293T cells (2-APB induced)
Settings: current induced by 300 μM 2-APB, compounds tested up to 10 μM, room temperature
pIC50: −log10 of the molar value.
I'd be grateful if you could share measured pIC50 for these entries.

COc1ncnc(OC)c1C(=O)Nc1nc2c(s1)CCc1ccccc1-2	≤ 5.00
COc1ncnc(OC)c1C(=O)Nc1nc2c(s1)C1(CCC(C(=O)N(C)C)CC1)Oc1cc(C(F)(F)F)ccc1-2 (centres unmarked)	5.00 to 6.00
CCC1(CC)Oc2cc(C(F)(F)F)ccc2-c2nc(NCc3c(OC)ncnc3OC)sc21	5.00 to 6.00

For each of the items listed, what is its pIC50?
1. CCC1(CC)Oc2cc(C(F)(F)F)ccc2-c2nc(NC(=O)c3c(C)ncnc3C)sc21
2. COc1ncnc(OC)c1C(=O)Nc1nc2c(s1)C1(CNC1)Oc1cc(C(F)(F)F)ccc1-2
3. COc1ncnc(OC)c1C(=O)Nc1nc2c(s1)C1(CCC(C(=O)OC(C)C)CC1)Oc1cc(C(F)(F)F)ccc1-2 (centres unmarked)
4. CCC1(CC)Oc2cc(C(C)(C)O)ccc2-c2nc(NC(=O)c3c(OC)ncnc3OC)sc21
5. COc1ncnc(OC)c1C(=O)Nc1nc2c(s1)C1(COC1)Oc1cc(Br)ccc1-2
6. COc1ncnc(OC)c1C(=O)Nc1nc2c(s1)C1(CCN(C)CC1)Oc1cc(C(F)(F)F)ccc1-2

Result:
5.00 to 6.00
≤ 5.00
> 7.00
5.00 to 6.00
6.00 to 7.00
5.00 to 6.00

====

Target: hTRPV3 (Homo sapiens)
Construct: The commercially available plasmid with the full-length cDNA of hTRPV3 (791 aa) (NM_001258205.2)
Assay: Whole-cell patch-clamp recording of hTRPV3 current in transfected HEK293T cells (2-APB induced)
Details: current induced by 300 μM 2-APB, compounds tested up to 10 μM, room temperature
pIC50: −log10 of the molar value.
Give measured pIC50 for each item. Keep answers brief.

CCC1(CC)Oc2cc(C(F)(F)F)ccc2-c2nc(NC(=O)c3c(OC)cccc3OC)sc21 [compound 142]	≤ 5.00

Please look at the items below and tell me pIC50 for each one, in order.
1. COc1ncnc(OC)c1C(=O)Nc1nc2c(s1)C1(CCCN(C(=O)OC(C)(C)C)C1)Oc1cc(C(F)(F)F)ccc1-2 (centres unmarked) [compound 12]
2. CCC1(CC)Oc2cc(Br)ccc2-c2nc(NC(=O)c3c(OC)ncnc3OC)sc21 [compound 49]
3. CCC1(CC)Oc2cc(N3CCOCC3)ccc2-c2nc(NC(=O)c3c(OC)ncnc3OC)sc21 [compound 58]
4. C=C(C)c1ccc2c(c1)OC(CC)(CC)c1sc(NC(=O)c3c(OC)ncnc3OC)nc1-2 [compound 55]
5. COc1ncnc(OC)c1C(=O)Nc1nc2c(s1)CCOc1cc(C(F)(F)F)ccc1-2 [compound 82]
6. COc1ncnc(OC)c1C(=O)Nc1nc2c(s1)C1(CCCC(NC(=O)OCc3ccccc3)C1)Oc1cc(C(F)(F)F)ccc1-2 (centres unmarked) [compound 39]
7. CCC1(CC)Oc2ccc(C(F)(F)F)cc2-c2nc(NC(=O)c3c(OC)ncnc3OC)sc21 [compound 83]
8. C#Cc1ccc2c(c1)OC(CC)(CC)c1sc(NC(=O)c3c(OC)ncnc3OC)nc1-2 [compound 81]

Result:
6.00 to 7.00
5.00 to 6.00
5.00 to 6.00
6.00 to 7.00
6.00 to 7.00
6.00 to 7.00
≤ 5.00
6.00 to 7.00

Please supply pIC50 for each of the following items, keeping them in order.
1. COc1ncnc(OC)c1C(=O)Nc1nc2c(s1)C1(CCN(C(C)=O)CC1)Oc1cc(C(F)(F)F)ccc1-2 [compound 64]
2. CCC1(CC)Oc2cc(C(F)(F)F)ccc2-c2nc(NC(=O)c3c(OC)nc(N)nc3OC)sc21 [compound 80]
3. COc1ncnc(OC)c1C(=O)Nc1nc2c(s1)C1(CN(C3COC3)C1)Oc1cc(C(F)(F)F)ccc1-2 [compound 160]

Result:
["6.00 to 7.00", "≤ 5.00", "6.00 to 7.00"]

Count: 2. Required value per item: pIC50.
1. COc1ncnc(OC)c1C(=O)Nc1nc2c(s1)C1(COC1)Oc1cc(C(F)(F)F)ccc1-2 [compound 65]
2. CCC1(CC)Oc2cc(C(F)(F)F)ccc2-c2nc(NC(=O)c3c(OCC(F)(F)F)ncnc3OCC(F)(F)F)sc21 [compound 48]

Result:
1: 6.00 to 7.00; 2: ≤ 5.00
